Provenance of the data: paper PMC12378240

Measured Cell viability by item
System: PC12 cells
Test: Neuroprotective activity against Aβ25-35 induced PC12 cell death by MTT assay
Format: cell-based
Conditions: Aβ25-35-induced cell damage in PC12 cells, MTT; control = 1.000, model (Aβ25-35) = 0.633; test concentration not given
Give the value as a plain number.

CC1N2CCCCC2C23CC(CC4CCCN1C42)C1CCCCN1C3 (racemic) [Compound 2, (±)-Ormohenin B]	0.693
C1CC[C@H]([C@@]23C[C@H](C[C@H]4CCCN[C@@H]42)[C@@H]2CCCCN2C3)NC1 (racemic) [Compound 5, (±)-18-epiormosanine]	0.698

Read the next record carefully.
Task item: Give the measured Cell viability of C1CC[C@@H]([C@@]23C[C@H](C[C@H]4CCCN[C@@H]42)[C@@H]2CCCCN2C3)NC1 (racemic) [Compound 6, (±)-ormosanine] .
Reply: 0.704
